Items are presented alongside their recorded IC50.
# Tested on: PC-3 prostate cancer cell line
# Measurement notes: NCI five-dose testing
# Format: cell-based
# Study conditions: Homo sapiens, PC-3; read-out: IC50
Metric: IC50

> print(dat)
                           structure.string  metric  meas.value
1  COc1cccc(-c2nn(-c3ccccc3)cc2-c2ccnc(NCCCNS(=O)(=O)c3cccc(F)c3)c2)c1    IC50     2970 nM
2  O=S(=O)(NCCCNc1cc(-c2cn(-c3ccccc3)nc2-c2cccc(O)c2)ccn1)c1cccc2ccccc12    IC50     1930 nM
3  O=S(=O)(NCCNc1cc(-c2cn(-c3ccccc3)nc2-c2cccc(O)c2)ccn1)c1ccc(C(F)(F)F)cc1    IC50     2470 nM
4  O=S(=O)(NCCCNc1cc(-c2cn(-c3ccccc3)nc2-c2cccc(O)c2)ccn1)c1ccc(Br)cc1    IC50     2110 nM
5  COc1cccc(-c2nn(-c3ccccc3)cc2-c2ccnc(NCCNS(=O)(=O)c3ccc(C(F)(F)F)cc3)c2)c1    IC50     2860 nM
6  COc1cccc(-c2nn(-c3ccccc3)cc2-c2ccnc(NCCCNS(=O)(=O)c3ccc(C(F)(F)F)cc3)c2)c1    IC50     3360 nM
7  O=S(=O)(NCCCNc1cc(-c2cn(-c3ccccc3)nc2-c2cccc(O)c2)ccn1)c1ccc(C(F)(F)F)cc1    IC50     2870 nM
8  O=S(=O)(NCCCNc1cc(-c2cn(-c3ccccc3)nc2-c2cccc(O)c2)ccn1)c1ccc(F)cc1    IC50     3110 nM

* * *

# Test system: PC-3 prostate cancer cell line
# Measurement notes: NCI five-dose testing
# Assay type: cell-based
# Study conditions: Homo sapiens, PC-3; read-out: TGI (total growth inhibition concentration)
Metric: IC (TGI) (µM)

> print(dat)
                                   molecule                       tested.on    metric  relational.operator  meas.value
1  COc1cccc(-c2nn(-c3ccccc3)cc2-c2ccnc(NCCCNS(=O)(=O)c3ccc(C(F)(F)F)cc3)c2)c1 [Compound 2g]  PC-3 prostate cancer cell line  IC (TGI)                    >         100
2  COc1cccc(-c2nn(-c3ccccc3)cc2-c2ccnc(NCCNS(=O)(=O)c3ccc(C(F)(F)F)cc3)c2)c1 [Compound 1g]  PC-3 prostate cancer cell line  IC (TGI)                    =        26.7
3  COc1cccc(-c2nn(-c3ccccc3)cc2-c2ccnc(NCCCNS(=O)(=O)c3cccc(F)c3)c2)c1 [Compound 2h]  PC-3 prostate cancer cell line  IC (TGI)                    >         100
4  O=S(=O)(NCCCNc1cc(-c2cn(-c3ccccc3)nc2-c2cccc(O)c2)ccn1)c1ccc(F)cc1 [Compound 2m]  PC-3 prostate cancer cell line  IC (TGI)                    =         8.5
5  O=S(=O)(NCCCNc1cc(-c2cn(-c3ccccc3)nc2-c2cccc(O)c2)ccn1)c1ccc(Br)cc1 [Compound 2k]  PC-3 prostate cancer cell line  IC (TGI)                    =         7.8
6  O=S(=O)(NCCCNc1cc(-c2cn(-c3ccccc3)nc2-c2cccc(O)c2)ccn1)c1cccc2ccccc12 [Compound 2q]  PC-3 prostate cancer cell line  IC (TGI)                    =        44.9
7  O=S(=O)(NCCNc1cc(-c2cn(-c3ccccc3)nc2-c2cccc(O)c2)ccn1)c1ccc(C(F)(F)F)cc1 [Compound 1o]  PC-3 prostate cancer cell line  IC (TGI)                    =        10.9
8  O=S(=O)(NCCCNc1cc(-c2cn(-c3ccccc3)nc2-c2cccc(O)c2)ccn1)c1ccc(C(F)(F)F)cc1 [Compound 2o]  PC-3 prostate cancer cell line  IC (TGI)                    =         4.5

Sourced from paper PMC6211260
